Where do the numbers come from? From patent US20240342156A1.

- Method: Crossover study with pharmacokinetic analysis, single oral dose in healthy male subjects
- Format: in vivo, human
- Run parameters: male, human, plasma; 20 mg single oral dose, fed; Full PK Profile Data Set (N = 16); read-out: Vz/F normalized (L/kg), Range
- Method: The pharmacokinetics (PK), safety, and tolerability of single doses of Compound A in healthy right-handed male human subjects were investigated in a randomized, double-blind, placebo-controlled, transcranial magnetic stimulation (TMS) crossover study. […] The PK parameters for this study were summarized in two ways. Firstly, PK parameters were calculated where possible using the PK samples collected during each 24 h sampling period for Period 1 and Period 2 separately. […]

Structure smiles string | Vd/F
Cc1cc(N2CCc3cc(F)ccc3C2)cc(C)c1NC(=O)CC(C)(C)C | 6.4 to 33.8 L/kg
